MEASUREMENT_NAME: melting point

Worked examples, 5 compounds total:
compound="CC(C)CN(C)c1cc2c(cc1C(F)(F)F)NC(=O)CC(c1cccc(-c3ccc(S(N)(=O)=O)cc3)c1)=N2 [Example 14]" result="236 °C (dec.)"
compound="CCOc1cc2c(cc1C(F)(F)F)NC(=O)CC(c1cccc(-c3cccc(S(N)(=O)=O)c3)c1)=N2 [Example 10]" result="210 to 220 °C (dec.)"
compound="NS(=O)(=O)c1cccc(-c2cccc(C3=Nc4ccc(-c5ccccc5F)cc4NC(=O)C3)c2)c1 [Example 17]" result="230 to 232 °C"
compound="NS(=O)(=O)c1cccc(-c2cccc(C3=Nc4ccc(C(F)(F)F)cc4NC(=O)C3)c2)c1 [Example 8]" result="170 °C (dec.)"
compound="CCOc1cc2c(cc1C(F)(F)F)NC(=O)CC(c1cccc(-c3ccc(S(=O)(=O)NC(C)(C)C)cc3)c1)=N2 [Example 7]" result="> 260 °C"

Would you mind telling me what melting point value was observed for NS(=O)(=O)c1ccc(-c2cccc(C3=Nc4ccc(C(F)(F)F)cc4NC(=O)C3)c2)cc1 [Example 9] ? 195 to 210 °C (dec.)

Name the reported melting point value associated with the compound CC(C)CN(C)c1cc2c(cc1C(F)(F)F)NC(=O)CC(c1cccc(-c3cccc(S(N)(=O)=O)c3)c1)=N2 [Example 15] 232 °C (dec.)

Could you share which melting point value was measured for CC(C)(C)NS(=O)(=O)c1cccc(-c2cccc(C3=Nc4ccc(C(F)(F)F)cc4NC(=O)C3)c2)c1 [Example 4] ? 179 to 181 °C

Which melting point value is on record for CCOc1cc2c(cc1C(F)(F)F)NC(=O)CC(c1cccc(-c3ccc(S(N)(=O)=O)cc3)c1)=N2 [Example 11] ? 245 to 250 °C (dec.)

May I ask what melting point has been recorded for CCOc1cc2c(cc1C(F)(F)F)NC(=O)CC(c1cccc(-c3cccc(S(=O)(=O)NC(C)(C)C)c3)c1)=N2 [Example 6] ? 215 to 218 °C
